src = PubChem BioAssay (NCI)

test system: MDA-MB-435 melanoma; test: NCI-60 one-dose screen, 48 h (100 = growth as untreated, 0 = no growth, -100 = all killed); settings: 10 µM unless noted
The panel holds about 83,000 compounds, 20% with a hit somewhere; the sample as a whole holds those more often. Calls of active or inactive are those of the source. How the source made its calls: active means growth percent below 10; inactive means the rest.
Quantity name: growth

- CC(=O)Oc1ccc(Nc2c3ccccc3nc3ccccc23)cc1: 8.19% (active)
- COc1ccc(C(=O)/C=C/c2c(Cl)c3c(c(OC)c2Cl)OCC(=O)N3)cc1: 7.18% (active)
- CC1=C(NCCN2CCCC2)C(=O)c2c(OCc3ccc(C(F)(F)F)cc3)cccc2C1=O: 70.9% (inactive)
- CCCCCC(=O)Oc1ccc(/C(=C(\C)c2ccccc2)c2ccc(OCCN(CC)CC)cc2)cc1: 70.3% (inactive)
- COc1ccc2nc3cc(Cl)ccc3c(N3CCN(c4nccc(NCc5ccccc5)n4)CC3)c2c1: 73.9% (inactive)
